- experimental_system: human Nav1.1 (Homo sapiens, UniProt P35498)
- Construct: host or cells: HEK293
- protocol_summary: Amplification of Nav1.1-derived voltage-gated sodium current (Nav1.1 current), automated patch clamp (Test 1)
- Format: cell-based
- condition_parameters: Concentration for evaluation 10 μM; HEK293 cell line stably expressing human Nav1.1
value_type: Nav1.1 current amplification rate (%)

Below, each entry is followed by its recorded Nav1.1 current amplification rate (%) result.
Query block: Consider the compound O=C(Cn1nc(C2=CCCCC2)ccc1=O)Nc1ccn2ccnc2c1 [Example 458] and give its measured Nav1.1 current amplification rate (%).
Result block: 24

Query block: Consider the compound Cc1noc2cc(NC(=O)Cn3nc(C4=CCC(C)CC4)ccc3=O)ccc12 (stereo not shown) [Example 240] and give its measured Nav1.1 current amplification rate (%).
Result block: 241

Query block: Consider the compound N#Cc1ccc(NC(=O)Cn2nc(N3CCCC(O)C3)ccc2=O)cc1 (stereo not shown) [Example 7] and give its measured Nav1.1 current amplification rate (%).
Result block: 3

Query block: Consider the compound CC1CC=C(c2ccc(=O)n(CC(=O)Nc3cccc4nccn34)n2)CC1 (stereo not shown) [Example 255] and give its measured Nav1.1 current amplification rate (%).
Result block: 32

Query block: Consider the compound CC1CCN(c2ccc(=O)n(CC(=O)Nc3ccnc(N4CCOCC4)c3)n2)CC1 [Example 66] and give its measured Nav1.1 current amplification rate (%).
Result block: 49

Query block: Consider the compound COc1cc(C2=CCC(C(F)(F)F)CC2)nn(CC(=O)Nc2ccn3ccnc3c2)c1=O (stereo not shown) [Example 462] and give its measured Nav1.1 current amplification rate (%).
Result block: 124

1: CC1CC=C(c2ccc(=O)n(CC(=O)NC3CCN(c4ccccc4)CC3)n2)CC1 (stereo not shown) [Example 368]
2: CC1CC=C(c2ccc(=O)n(CC(=O)N3CC=C(c4nccc5occc45)CC3)n2)CC1 (stereo not shown) [Example 404]
Query block: Select one: 1 or 2 . Criterion: greater recorded Nav1.1 current amplification rate (%). Selection: enter the item's label.
Result block: 2

a: COc1cc(=O)n(CC(=O)N2CCN(c3cncc(F)c3)CC2)nc1C1=CCC(C)(C)CC1 [Example 490]
b: COc1cc(C2=CCC(C)CC2)nn(CC(=O)Nc2ccc3ocnc3c2)c1=O (racemic) [Example 449]
Query block: Select one: a or b . Criterion: greater recorded Nav1.1 current amplification rate (%). Selection: enter the item's label.
Result block: a
(a: 469%, b: 250%)

---

- experimental_system: human Nav1.1 (Homo sapiens, UniProt P35498)
- Construct: host or cells: HEK293
- protocol_summary: Amplification of Nav1.1-derived voltage-gated sodium current (Nav1.1 current), automated patch clamp (Test 1)
- Format: cell-based
- condition_parameters: Concentration for evaluation 1 μM; HEK293 cell line stably expressing human Nav1.1
value_type: Nav1.1 current amplification rate (%)

Query block: Record lookup: for human Nav1.1 (Homo sapiens, UniProt P35498), what Nav1.1 current amplification rate (%) belongs to "CN(c1cnc2cnn(CC(=O)N3CCc4c(C#N)cccc43)c2n1)C1CC1" ?
Result block: 13

1: CC1CC=C(c2ccc(=O)n(CC(=O)N3CCCN(c4cccnc4)CC3)n2)CC1 (stereo not shown)
2: CC1CCN(c2ncc3cnn(CC(=O)Nc4ccn5ncnc5c4)c3n2)CC1
3: CN(c1cnc2cnn(CC(=O)Nc3ccc4ncnn4c3)c2n1)C1CCCC1
4: CN(c1cnc2cnn(CC(=O)N3CCc4cc(N5CCOCC5)ccc43)c2n1)C1CC1
5: CC1CC=C(c2ccc(=O)n(CC(=O)N3CCc4c3cccc4C(C)(C)O)n2)CC1 (stereo not shown)
Query block: Provide the items ranked by increasing Nav1.1 current amplification rate (%). Output the labels ranked as instructed.
Result block: 1, 3, 4, 2, 5

I: CN(c1cnc2cnn(CC(=O)Nc3ccn4ncnc4c3)c2n1)C1CCC(F)(F)C1 (stereo not shown)
II: COC1CCN(c2nccc3c2CCN3C(=O)Cn2nc(C3=CCC(C)CC3)ccc2=O)CC1 (stereo not shown)
III: CN(CC1(F)CC1)c1cnc2cnn(CC(=O)Nc3ccn4ncnc4c3)c2n1
Query block: Order the items by recorded Nav1.1 current amplification rate (%); the first position goes to the largest value. Output the labels ranked as instructed.
Result block: II, III, I

I: O=C(Cn1ncc2cnc(N3CCC(F)(F)CC3)nc21)Nc1ccn2ncnc2c1
II: CC1CC=C(c2ccc(=O)n(CC(=O)N3CCc4c(CNC5COC5)cccc43)n2)CC1 (stereo not shown)
III: CN1CCN(c2cccc3c2CCN3C(=O)Cn2ncc3ncc(N(C)C4CC4)nc32)CC1
Query block: Order the items by recorded Nav1.1 current amplification rate (%); the first position goes to the largest value. Output the labels ranked as instructed.
Result block: II, III, I
(II: 84%, III: 45%, I: 18%)
